FYI, the data here is from patent US12239645B2.

- method.description: Phase I single ascending dose (SAD) study: plasma and urine pharmacokinetics
- Type: in vivo, human
- settings: human, plasma, oral, 80 mg, 80 mg single dose, fasted, plasma; read-out: tmax, Mean
parameter.measured: Tmax (h)
Numbers only here, please. The scale is h.

Problem: Data request, read-out Tmax, for `CC(=O)c1nn(CC(=O)N2[C@H](C(=O)Nc3nc(Br)ccc3C)C[C@@]3(C)C[C@@H]23)c2ccc(-c3cnc(C)nc3)cc12`
Solution: 2

====

- method.description: Multiple ascending dose (MAD) study: multiple-dose pharmacokinetics
- Assay type: in vivo, human
- settings: human, plasma, oral, 120 mg, 120 mg BID × 14 Days, Day 7; read-out: AUC(0-12), Mean
parameter.measured: AUC(0-t) (ng·h/mL)
Numbers only here, please. The scale is ng·h/mL.

Problem: Data request, read-out AUC(0-t), for CC(=O)c1nn(CC(=O)N2[C@H](C(=O)Nc3nc(Br)ccc3C)C[C@@]3(C)C[C@@H]23)c2ccc(-c3cnc(C)nc3)cc12 [Compound 1]
Solution: 3880
